Test: BET inhibitor-based combinations targeting novel dependencies in MECOM-rearranged (r) AML: SET-2 cell line (AID 2202231);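 further: plate controls were DMSO treated cells for no effect and wells without cells for full effect; nearly all actives have a fitted effect of over 35% in size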
Conditions: SET-2 AML cells viability, CellTiter-Glo luminescence, 48 h; hits give low values, concentration not given here
Records with an inconclusive call do not appear. Residues, ends and D or L forms follow the SMILES beside them.
For each record, write down the corresponding viability.
Lab book: enter the figure in %, no units written.

Please report the recorded viability for CN(C(Cc1ccc(OS(=O)(=O)c2cccc3cnccc23)cc1)C(=O)N1CCN(c2ccccc2)CC1)S(=O)(=O)c1cccc2cnccc12 (stereo not given) .
92.1

Request: O=C(O)CCCCC(CCSCc1ccccc1)SCc1ccccc1 (stereo not given)
107

Request: CNC(=O)c1c(-c2ccc(F)cc2)oc2cc(N(CCO)S(C)(=O)=O)c(C3CC3)cc12
119

Request: COC(=O)[C@H](Cc1ccccc1)NC(=O)[C@@H](N)CC(=O)O (H-Asp-Phe-OMe)
112

Request: Cn1cnc2c(F)c(Nc3ccc(Br)cc3F)c(C(=O)NOCCO)cc21
26.2

Request: OC[C@H]1OC(O)C[C@@H](O)[C@H]1O (stereo not given in full)
110

Request: O=C(C1CC1)N1CC[C@@H](Cc2n[nH]c(=O)n2-c2ccc(-c3ccc4occc4c3)cc2)C1
95.8

Request: c1coc(CNc2ncnc3nc[nH]c23)c1
107

Request: Cc1ccccc1-n1c(Cn2nc(-c3cccc(O)c3)c3c(N)ncnc32)nc2cccc(C)c2c1=O
105

Request: Cc1ncc([N+](=O)[O-])n1CC(C)O (stereo not given)
124

Request: Cc1cc(C(C)(C)C)c(O)c(C)c1CC1=NCCN1
118

Request: C[C@@H]1CN(CC(=O)Nc2ccc3c(c2)Cc2cccc(-c4cc(=O)cc(N5CCOCC5)o4)c2S3)C[C@H](C)O1
86.1

Request: Cc1c(C)n(Cc2ccc(-c3ccccc3C(=O)O)cc2)c2ccc(C(=O)N[C@@H](C)c3ccc([N+](=O)[O-])cc3)cc12
111

Request: C[C@@H](N)C1CCC(C(=O)Nc2ccncc2)CC1 (stereo not given in full)
110

Request: COc1ccc([C@@H]2Sc3ccccc3N(CCN(C)C)C(=O)[C@@H]2OC(C)=O)cc1
101

---

Experiment: BET inhibitor-based combinations targeting novel dependencies in MECOM-rearranged (r) AML: MV-4-11 cell line (AID 2202233); further: nearly all actives have a fitted effect of over 45% in size
Details: MV-4-11 AML viability, CellTiter-Glo luminescence, 48 h; series mostly up to 46 µM
Protocol: Ecotropic viral insertion site 1 (EVI1) is located on chromosome 3q26.2 as part of the MECOM (MDS and EVI1 complex) locus. […] A collection of 2480 mechanistically annotated dugs (MIPE v5.0) was used to screen four 3q26.2 rearranged AML cell lines and three non-3q26.2 rearranged AML cell lines. […] Cell viability was determined by luminescence based, Cell Titer Glo assay (Promega). […] Luminescence readings were taken using a Viewlux (PerkinElmer) with a 2 s exposure time per plate. […]
Records with an inconclusive call do not appear. The source made the active and inactive calls. The call rests on the fitted dose curve; in most records, active means well fitted inhibition curve with a large enough effect; inconclusive means small, poorly fitted or top-dose-only effect; inactive means no such curve, though single readings can be large or run the other way. Residues, ends and D or L forms follow the SMILES beside them.
Assign a class; possible classes are True = active, False = inactive

Dear all, I need the recorded test outcome for COC(=O)[C@H](Cc1ccccc1)NC(=O)[C@@H](N)CC(=O)O (H-Asp-Phe-OMe) , thank you.
False

Request: O=C(Nc1ccc2c(c1)CCN(Cc1ncn[nH]1)C2)c1ccccc1-c1ccc(C(F)(F)F)cc1
True

Request: CC(C)N(CCCNC(=O)Nc1ccc(C(C)(C)C)cc1)C[C@H]1O[C@@H](n2cc(Br)c3c(N)ncnc32)[C@H](O)[C@@H]1O
True

Request: COc1c(C)c2c(c(O)c1C/C=C(\C)CCC(=O)OCCN1CCOCC1)C(=O)OC2
True

Request: Cc1cnc(NC(=O)C2=C(O)c3ccccc3S(=O)(=O)N2C)s1
False

Request: CCCCCCCCc1ccc(CCC(N)(CO)CO)cc1
True

Request: CO[C@@H]1COCC[C@@H]1N[C@@H]1CC[C@@](C(=O)N2CCc3ncc(C(F)(F)F)cc3C2)(C(C)C)C1
False

Request: COc1cc(OC)c2c(=O)[nH]c(-c3cc(C)c(OCCO)c(C)c3)nc2c1
True

Request: C=CC(=O)Nc1cc(Nc2nccc(-c3cn(C)c4ccccc34)n2)c(OC)cc1N(C)CCN(C)C
True

Request: Nc1nc(-c2nn(Cc3ccccc3F)c3ncccc23)nc(N)c1N1CCOCC1
False

---

Test: BET inhibitor-based combinations targeting novel dependencies in MECOM-rearranged (r) AML: AML-191 cell line (AID 2202236; further: nearly all actives have a fitted effect of over 35% in size)
Settings: AML-191 viability, CellTiter-Glo luminescence, 48 h; series mostly up to 46 µM
Results filed as inconclusive are left out. Calls of active or inactive are those of the source. Calls follow the shape of the dose curve; as a rule, active = well fitted inhibition curve with a large enough effect; inconclusive = small, poorly fitted or top-dose-only effect; inactive = flat fitted curve, though single readings scatter.
Assign a class; possible classes are yes for active, no for inactive

Dear all, I need the recorded test outcome for O=c1[nH]cnc2[nH]ncc12 , thank you.
no

Request: Cc1cccc(-c2[nH]c(C(C)(C)C)nc2-c2ccc3c(c2)OCO3)n1
yes

Request: CN(CCOc1ccc(NS(C)(=O)=O)cc1)CCc1ccc(NS(C)(=O)=O)cc1
no

---

Experiment: BET inhibitor-based combinations targeting novel dependencies in MECOM-rearranged (r) AML: MV-4-11 cell line (AID 2202233); further: nearly all actives have a fitted effect of over 45% in size
Settings: MV-4-11 AML viability, CellTiter-Glo luminescence, 48 h; series mostly up to 46 µM
Inconclusive results are not listed. Activity calls are given as the source filed them. Calls follow the shape of the dose curve; as a rule, active = well fitted inhibition curve with a large enough effect; inconclusive = small, poorly fitted or top-dose-only effect; inactive = no such curve, though single readings can be large or run the other way.
Assign a class; possible classes are t for active, f for inactive

Dear all, I need the recorded test outcome for CC(C)C[C@H](NC(=O)[C@@H](O)[C@H](N)Cc1ccccc1)C(=O)O , thank you.
f

Request: OCc1ccc(-c2nn(Cc3ccccc3)c3ccccc23)o1
t

Request: Nc1ccn(C2CO[C@H](CO)O2)c(=O)n1 (stereo partly drawn)
f

Request: COC(=O)Nc1nc2ccc(C(=O)c3cccs3)cc2[nH]1
t

Request: C#Cc1cccc(Nc2ncnc3cc(OCCOC)c(OCCO)cc23)c1
t

Request: CC(C)N(CCC(=O)c1ccc2ccccc2c1)Cc1ccccc1
t

Request: Oc1cc2c(cc1O)C1c3ccc(O)c(O)c3OCC1(O)C2 (stereo not drawn)
t

Request: C#CCC(Cc1cnc2nc(N)nc(N)c2n1)c1ccc(C(=O)N[C@@H](CCC(=O)O)C(=O)O)cc1 (stereo partly drawn)
t

---

For each record, write down the corresponding viability.
Assay: BET inhibitor-based combinations targeting novel dependencies in MECOM-rearranged (r) AML: SET-2 cell line (AID 2202231);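 further: plate controls were DMSO treated cells for no effect and wells without cells for full effect; nearly all actives have a fitted effect of over 35% in size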
Conditions: SET-2 AML cells viability, CellTiter-Glo luminescence, 48 h; hits give low values, concentration not given here
Records with an inconclusive call do not appear. Calls of active or inactive are those of the source. The call rests on the fitted dose curve; in most records, active means well fitted inhibition curve with a large enough effect; inconclusive means small, poorly fitted or top-dose-only effect; inactive means no such curve, though single readings can be large or run the other way.

Please report the recorded viability for CCCc1nc2c(C)cc(-c3nc4ccccc4n3C)cc2n1Cc1ccc(-c2ccccc2C(=O)O)cc1 .
120% (inactive)

Request: Nc1nc2c(c(=O)[nH]1)N(C=O)[C@H](CNc1ccc(C(=O)N[C@@H](CCC(=O)O)C(=O)O)cc1)CN2
115% (inactive)

Request: COc1ccc(-c2cc(=O)c3c(O)cc(O[C@@H]4O[C@H](CO[C@@H]5O[C@@H](C)[C@H](O)[C@@H](O)[C@H]5O)[C@@H](O)[C@H](O)[C@H]4O)cc3o2)cc1O
112% (inactive)

Request: O=C(NCc1cccc(O)c1)Nc1nc(-c2ccncc2)cs1
92.2% (inactive)

Request: Cc1ncc(Cl)cc1NCc1ccc(C(=O)NC(CC2CCCC2)C(=O)NC2CC2)s1 (centres undefined)
107% (inactive)

Request: CCC(=O)O[C@]1(C(=O)SCF)[C@H](C)C[C@H]2[C@@H]3C[C@H](F)C4=CC(=O)C=C[C@]4(C)[C@@]3(F)[C@@H](O)C[C@@]21C
114% (inactive)

Request: CC1CCN(c2cc(N3CCN(C)CC3)ccc2NC(=O)c2cc(C#N)c[nH]2)CC1
116% (inactive)

Request: Cc1n[nH]c(C)c1Cc1sc2c(c1C(=O)N1C[C@H](O)CO1)c(=O)n(C)c(=O)n2CC(C)C
111% (inactive)

Request: c1cc(-c2sc(-c3ccncc3)c(-c3ccncc3)c2-c2ccncc2)ccn1
103% (inactive)

Request: CCOC(=O)c1ccnc(CNCC(=O)N(CC)CCN(C)C)c1
104% (inactive)

Request: C[Se]CCC(N)C(=O)O (centres undefined)
105% (inactive)

Request: COc1c(C)cc(NC(=O)c2nn(Cc3ccc(F)cc3)c3c2CN(C(=O)c2ccc[nH]2)C[C@]3(C)C(N)=O)cc1C
118% (inactive)

Request: O=[N+]([O-])c1cn2c(n1)OC[C@@H](OCc1ccc(OC(F)(F)F)cc1)C2
111% (inactive)

Request: Cn1ncc2cc(-c3cnc(N)c(Cl)c3N3CCC4(CCNC4=O)CC3)ccc21
103% (inactive)

Request: O=C(CN1C(=O)C2(CCCC2)NC[C@H]1c1cc(F)cc(F)c1)Nc1ccc2c(c1)C[C@@]1(C2)C(=O)Nc2ncccc21
98.8% (inactive)

Request: CC[C@H](Nc1ncnc2nc[nH]c12)c1nc2cccc(F)c2c(=O)n1-c1ccccc1
94.4% (inactive)

Request: CN(C)S(=O)(=O)c1ccc2c(c1)C(=Cc1cc3c([nH]1)CCCC3)C(=O)N2
101% (inactive)

Request: Cn1cnc(=N)c2[nH]cnc21
111% (inactive)

Request: C[C@@H](CN1CC(=O)NC(=O)C1)N1CC(=O)NC(=O)C1
92.4% (inactive)

Request: CCC(C)(Oc1ccc(C2(c3ccc(OC(C)(CC)C(=O)O)cc3)CCCCC2)cc1)C(=O)O (centres undefined)
114% (inactive)

Request: COc1ccccc1C(=O)Nc1cc2c(cc1N1CCCCC1)n(C)c(=O)n2C
101% (inactive)

Request: O=C(O)c1ccc(-c2c[nH]c3ncc(-c4ccccc4)cc23)cc1C1CCCC1
89.8% (inactive)

Request: COc1cc(C[C@@H](CO)[C@H](CO)Cc2ccc(O)c(OC)c2)ccc1O
120% (inactive)

Request: O=C(O)c1cnn(-c2nc3cc(OC(F)(F)F)c(Cl)cc3[nH]2)c1
119% (inactive)

Request: NCCOc1cc(C(=O)Nc2cc(OCCN)c3ccccc3n2)nc(C(=O)Nc2cc(OCCN)c3ccccc3n2)c1
78% (inactive)

Request: CN(C)CC/C=C1/c2ccccc2COc2ccc(CC(=O)O)cc21
121% (inactive)

Request: CC1=NN(c2ccccc2)C(=O)C1
112% (inactive)

Request: CC12CC3CC(C)(C1)CC(N)(C3)C2
110% (inactive)

Request: CCOc1ccccc1N=Nc1c(C)[nH]n(-c2nc(-c3ccccc3)cs2)c1=O
118% (inactive)

Request: N[C@@H]1CONC1=O
117% (inactive)

Request: O=C1C(c2c(O)[nH]c3ccccc23)=Nc2ccccc21
103% (inactive)

Request: N#C[C@@H]1C[C@@H]2C[C@@H]2N1C(=O)[C@@H](N)C12CC3CC(CC(O)(C3)C1)C2
110% (inactive)

Request: CC(C)Oc1ccc2c(=O)c(-c3ccccc3)coc2c1
108% (inactive)

Request: O=C(Nc1ccc(Oc2ccnc3[nH]ccc23)c(F)c1)c1cccn(-c2ccc(F)cc2)c1=O
106% (inactive)
